src = PubChem BioAssay (Tox21)

EXPERIMENTAL DETAILS: qHTS assay to identify small molecule antagonists of the estrogen receptor alpha (ER-alpha) signaling pathway using the BG1 cell line - cell viability counter screen (AID 743081);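 note: compound given together with 17beta-estradiol as the ER stimulus; nearly all actives have a fitted effect of over 45% in size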
CONDITIONS USED: BG1Luc4E2 viability, CellTiter-Fluor, 22 h; series mostly up to 70.3 µM
Records with an inconclusive call do not appear. Calls of active or inactive are those of the source. Calls come from the whole dose curve; as a rule, active = well fitted cell-killing curve with a large enough effect in the repeat runs; inconclusive = weak or mixed curves, or effect the other way; inactive = flat fitted curve, though single readings scatter.
Please answer using one outcome listed in true (1) = active, false (0) = inactive

Give the logged outcome of this assay for the following molecule: "NCCCN1CCOCC1"
false (0)

Give the logged outcome of this assay for the following molecule: CC(C)(C)OCC1CO1 (configuration not stated)
false (0)

Give the logged outcome of this assay for the following molecule: "NCC(=O)CCC(=O)O"
false (0)

Give the logged outcome of this assay for the following molecule: "CCCCC"
false (0)

Give the logged outcome of this assay for the following molecule: "O=C1C(O)=C(O)C(=O)C(O)=C1O"
false (0)

Give the logged outcome of this assay for the following molecule: CCCCC(CC)COC(=O)COc1ccc(Cl)cc1Cl (configuration not stated)
false (0)

Give the logged outcome of this assay for the following molecule: "COC(C)OC"
false (0)

Give the logged outcome of this assay for the following molecule: "O=P(O)(OCc1ccccc1)OCc1ccccc1"
false (0)

Give the logged outcome of this assay for the following molecule: O=C1OC(CN2CCOCC2)CN1/N=C/c1ccc([N+](=O)[O-])o1 (configuration not stated)
false (0)

Give the logged outcome of this assay for the following molecule: "CCCn1cnc2c1c(=O)n(CCCCC(C)=O)c(=O)n2C"
false (0)

Give the logged outcome of this assay for the following molecule: "CCCCC1=NC2(CCCC2)C(=O)N1Cc1ccc(-c2ccccc2-c2nn[nH]n2)cc1"
false (0)

Give the logged outcome of this assay for the following molecule: "CC(C)CC(=O)C1C(=O)c2ccccc2C1=O"
false (0)

Give the logged outcome of this assay for the following molecule: "CCCCCCCCCc1ccc(OCCOCCO)cc1"
true (1)

Give the logged outcome of this assay for the following molecule: "O=C(O)c1nc(Cl)c(Cl)c(Cl)c1Cl"
false (0)

Give the logged outcome of this assay for the following molecule: "C#C[C@]1(O)CC[C@H]2[C@@H]3CCc4cc(OC5CCCC5)ccc4[C@H]3CC[C@@]21C"
false (0)

Give the logged outcome of this assay for the following molecule: "CC(C)(C)Cl"
false (0)

Give the logged outcome of this assay for the following molecule: "CCCCCCCCCCCCCCCCCCOS(=O)(=O)O"
false (0)

Give the logged outcome of this assay for the following molecule: "c1ccc(C(O[C@H]2CCCN(CCc3ccc4c(c3)OCO4)C2)c2ccccc2)cc1"
false (0)

Give the logged outcome of this assay for the following molecule: O=CC1CC=CCC1 (configuration not stated)
false (0)

Give the logged outcome of this assay for the following molecule: CCCCC(CC)COC(=O)CCCCCCCCC(=O)OCC(CC)CCCC (configuration not stated)
false (0)

Give the logged outcome of this assay for the following molecule: "O=C(O)c1ccccc1Cl"
false (0)

Give the logged outcome of this assay for the following molecule: "CCO[C@H](Cc1ccc(OCCc2ccc(OS(C)(=O)=O)cc2)cc1)C(=O)O"
false (0)

Give the logged outcome of this assay for the following molecule: "CN(C)c1ccc(C(c2ccccc2)c2ccc(N(C)C)cc2)cc1"
false (0)

Give the logged outcome of this assay for the following molecule: "CCN(CC)CCNc1ccc(CNC=O)c2sc3ccc(OC)cc3c(=O)c12"
true (1)

Give the logged outcome of this assay for the following molecule: "CCC(=O)O[C@]1(C(=O)CCl)[C@@H](C)C[C@H]2[C@@H]3CCC4=CC(=O)C=C[C@]4(C)[C@@]3(F)[C@@H](O)C[C@@]21C"
false (0)

Give the logged outcome of this assay for the following molecule: "O=C(c1ccc(F)cc1)C1CCN(CCn2c(=S)[nH]c3ccccc3c2=O)CC1"
false (0)

Give the logged outcome of this assay for the following molecule: "Cc1ncc(CO)c(C=O)c1O"
false (0)

Give the logged outcome of this assay for the following molecule: "C/C=C/C=C/CO"
false (0)

Give the logged outcome of this assay for the following molecule: "CCCCCCc1ccc(-c2ccc(C#N)cc2)cc1"
false (0)

Give the logged outcome of this assay for the following molecule: "c1ccc(-c2ccccn2)nc1"
false (0)

Give the logged outcome of this assay for the following molecule: "NC(=O)C(c1ccccc1)(c1ccccc1)[C@@H]1CCN(CCc2ccc3c(c2)CCO3)C1"
false (0)

Give the logged outcome of this assay for the following molecule: COCC(C)OC(C)=O (configuration not stated)
false (0)

Give the logged outcome of this assay for the following molecule: "O=C(O)C1(C(=O)Nc2ccc(Cl)cc2Cl)CC1"
false (0)

Give the logged outcome of this assay for the following molecule: "Nc1c(CC(=O)O)cccc1C(=O)c1ccc(Br)cc1"
false (0)

Give the logged outcome of this assay for the following molecule: "CN1CCN(C(c2ccccc2)c2ccccc2)CC1"
false (0)

Give the logged outcome of this assay for the following molecule: "CC(=O)[O][Al][O]C(C)=O"
false (0)

Give the logged outcome of this assay for the following molecule: "CCN(CC)c1ccc2c(-c3ccccc3C(=O)O)c3ccc(=[N+](CC)CC)cc-3oc2c1"
true (1)

Give the logged outcome of this assay for the following molecule: "CC1=CC=C(C(C)C)CC1"
false (0)

Give the logged outcome of this assay for the following molecule: "Cn1c(=O)cc(Oc2ccc(F)cc2F)c2cnc(NCC(C)(C)O)nc21"
false (0)

Give the logged outcome of this assay for the following molecule: "C#CCN(C)CCCOc1ccc(Cl)cc1Cl"
false (0)

Give the logged outcome of this assay for the following molecule: "COc1cc(Cl)c(OC)cc1N"
false (0)

Give the logged outcome of this assay for the following molecule: OCc1cc(C(O)CNCCCCCCOCCCCc2ccccc2)ccc1O (configuration not stated)
true (1)

Give the logged outcome of this assay for the following molecule: "CC(=O)OC[C@H]1O[C@@H](n2ncc(=O)[nH]c2=O)[C@H](OC(C)=O)[C@@H]1OC(C)=O"
false (0)

Give the logged outcome of this assay for the following molecule: "c1ccc(CNCCNCc2ccccc2)cc1"
false (0)

Give the logged outcome of this assay for the following molecule: "CC/C=C\CCOC(=O)CC"
false (0)

Give the logged outcome of this assay for the following molecule: "CNCCCCOc1ccccc1Cc1ccccc1"
false (0)

Give the logged outcome of this assay for the following molecule: "CCOC(=O)c1cccnc1"
false (0)

Give the logged outcome of this assay for the following molecule: "CCOC(=O)COC(=O)c1cc(Oc2ccc(C(F)(F)F)cc2Cl)ccc1[N+](=O)[O-]"
false (0)

Give the logged outcome of this assay for the following molecule: "CCCCOC(=O)CCCCCCCC(=O)OCCCC"
false (0)

Give the logged outcome of this assay for the following molecule: "CC(=O)c1ccc2c(c1)N(CCCN(C)C)c1ccccc1S2"
false (0)

Give the logged outcome of this assay for the following molecule: "COc1ccc(C(=O)Nc2nc3ccccc3c(NCc3ccccc3)c2C#N)cc1"
false (0)

Give the logged outcome of this assay for the following molecule: "CCCCCCCCCCCC(=O)OC[C@@H](O)[C@H]1OC[C@H](OCCO)[C@H]1OCCO"
false (0)
